- Test system: Alternaria solani
- method: In vivo fungicidal activity, Tomato Early Blight (TEB); further: ranges in brackets are in %
- experimentalConditions: Table VIa; host plants sprayed; solution of 400 ppm and dilutions
Exercise: for every item that follows, state its recorded disease control rating TEB.

Example compounds with recorded disease control rating TEB:
CN(CCC1COC2(CCC(C(C)(C)C)CC2)C1)C1CCCCC1 (centres unmarked) :: 4 (45-59)
CC(C)(C)C1CCC2(CC1)CC(CCNC1CCCCCC1)CO2 (centres unmarked) :: 0 (0)
CCN(CCC1COC2(CCC(C(C)(C)C)CC2)C1)C1CCCCC1 (centres unmarked) :: 0 (0)
CCCCCC(C)N(CC)CCC1COC2(CCC(C(C)(C)C)CC2)C1 (centres unmarked) :: 0 (0)

Now for another entry.
Which disease control rating TEB value belongs to CCCC(CCC)NCCC1COC2(CCC(C(C)(C)C)CC2)C1 (centres unmarked) ? 2 (15-29)

---

- Tested on: Botrytis cinerea
- method: Direct protectant activity against broad bean grey mould (BCB)
- Format: in vivo
- experimentalConditions: direct protectant foliar spray, 600 ppm, 4 days
quantity: disease control rating BCB

Example compounds with recorded disease control rating BCB:
CC1CCCN(C2COC3(CCC(C(C)(C)C)CC3)C2)C1 (stereo not shown) :: 0 (less than 50% disease control)
CCC(CC)NC1COC2(CCC(C(C)(C)C)CC2)C1 (stereo not shown) :: 1 (about 50-80% disease control)

Please give disease control rating BCB for each item listed below.
1. CC(C)(C)C1CCC2(CC1)CC(NCc1ccc(F)cc1)CO2 (stereo not shown)
2. CC(C)(C)C1CCC2(CC1)CC(NCc1ccccc1)CO2 (stereo not shown)
3. CCC(C)NC1COC2(CCC(C(C)(C)C)CC2)C1 (stereo not shown)
4. CCCCCCNC1COC2(CCCCC2)C1 (stereo not shown)
5. CN(C)C1COC2(CCC(C(C)(C)C)CC2)C1 (stereo not shown)
6. CCCCCN(CCCCC)C1COC2(CCC(C(C)(C)CC)CC2)C1 (stereo not shown)
7. CC(C)(C)C1CCC2(CC1)CC(N1CCCC3CCCCC31)CO2 (stereo not shown)
8. CC(C)(C)C1CCC2(CC1)CC(CCN)CO2.Cl (stereo not shown)

["0 (less than 50% disease control)", "0 (less than 50% disease control)", "2 (greater than 80% disease control)", "0 (less than 50% disease control)", "0 (less than 50% disease control)", "0 (less than 50% disease control)", "1 (about 50-80% disease control)", "0 (less than 50% disease control)"]

---

- Test system: Phytophthora infestans
- Format: in vivo
- experimentalConditions: tomato, direct protectant foliar spray
For each record, write down the corresponding disease control rating PIP.

Worked set:
CC(C)(C)C1CCC2(CC1)CC(N1CCc3ccccc3C1)CO2 (stereo not drawn) :: 2 (greater than 80% disease control)
CC(C)(C)C1CCC2(CC1)CC(N1CCCCC1)CO2 (stereo not drawn) :: 0 (less than 50% disease control)
CC1CN(C2COC3(CCCCC3)C2)CC(C)O1 (stereo not drawn) :: 0 (less than 50% disease control)
CCCCCCN(CCCCCC)C1COC2(CCC(C(C)(C)C)CC2)C1 (stereo not drawn) :: 0 (less than 50% disease control)
CCCN(CCC1CCCCC1)C1COC2(CCC(C(C)(C)C)CC2)C1 (stereo not drawn) :: 0 (less than 50% disease control)
CC(C)(C)C1CCC(NC2COC3(CCC(C(C)(C)C)CC3)C2)CC1 (stereo not drawn) :: 2 (greater than 80% disease control)
CCCC(CCC)NC1COC2(CCC(C(C)(C)C)CC2)C1 (stereo not drawn) :: 2 (greater than 80% disease control)
CC(C)(C)C1CCC2(CC1)CC(NCCC1CCCCC1)CO2 (stereo not drawn) :: 2 (greater than 80% disease control)

Missing value: disease control rating PIP, Phytophthora infestans, entry CCN(CCC1CCCCC1)C1COC2(CCC(C(C)(C)C)CC2)C1 (stereo not drawn) . Fill in? 0 (less than 50% disease control)

---

Record form. Attribute: disease control rating PIP. Fill in for each entry.
- System: Phytophthora infestans
- Type: in vivo
- experimentalConditions: tomato, direct protectant foliar spray

Use these answered entries as a reference point.
CC(C)(C)C1CCC2(CC1)CC(NCc1ccc(Br)cc1)CO2 (stereo not drawn) [Compound 29] :: 0 (less than 50% disease control)
CCCN(C(CC)CC)C1COC2(CCC(C(C)(C)C)CC2)C1 (stereo not drawn) [Compound 96] :: 0 (less than 50% disease control)
CCCCCNC1COC2(CCC(c3ccccc3)CC2)C1 (stereo not drawn) [Compound 54] :: 0 (less than 50% disease control)
c1ccc(C2CCC3(CC2)CC(NC2CCCCC2)CO3)cc1 (stereo not drawn) [Compound 56] :: 0 (less than 50% disease control)
CCCCCCNC1COC2(CCC(C(C)(C)C)CC2)C1 (stereo not drawn) [Compound 41] :: 0 (less than 50% disease control)

Report disease control rating PIP for every entry below.
1. CC1CCN(C2COC3(CCC(C(C)(C)C)CC3)C2)CC1 (stereo not drawn) [Compound 19]
2. CC(C)(C)C1CCC2(CC1)CC(NC1CCC3CCCCC3C1)CO2 (stereo not drawn) [Compound 98]
3. CC(C)CCCC(C)NC1COC2(CCC(C(C)(C)C)CC2)C1 (stereo not drawn) [Compound 107]
4. CCCNC1COC2(CCC(C(C)(C)C)CC2)C1 (stereo not drawn) [Compound 62]

["0 (less than 50% disease control)", "2 (greater than 80% disease control)", "2 (greater than 80% disease control)", "0 (less than 50% disease control)"]

---

- System: Botrytis cinerea
- method: Direct protectant activity against broad bean grey mould (BCB)
- Format: in vivo
- experimentalConditions: direct protectant foliar spray, 600 ppm, 4 days
Kindly state disease control rating BCB for each of the entries shown.

Worked examples, 2 compounds total:
CC(C)(C)C1CCC2(CC1)CC(N1CCCC1)CO2 (centres unmarked) :: 0 (less than 50% disease control)
CC(C)N(CCC1CCCCC1)C1COC2(CCC(C(C)(C)C)CC2)C1 (centres unmarked) :: 0 (less than 50% disease control)

I need disease control rating BCB for every entry listed below, if you could help.
1. CCCCCCNC1COC2(CCC(C(C)(C)C)CC2)C1 (centres unmarked) [Compound 37]
2. CCC(C)CC(C)NC1COC2(CCC(C(C)(C)C)CC2)C1 (centres unmarked)
3. CC1CN(C2COC3(CCC(c4ccccc4)CC3)C2)CC(C)O1 (centres unmarked)

1: 1 (about 50-80% disease control); 2: 0 (less than 50% disease control); 3: 0 (less than 50% disease control)

---

Answer each item with its documented disease control rating BCB.
- System: Botrytis cinerea
- method: Direct protectant activity against broad bean grey mould (BCB)
- Type: in vivo
- experimentalConditions: direct protectant foliar spray, 600 ppm, 4 days

CCCN(C1COC2(CCC(C(C)(C)C)CC2)C1)C1CC2CCC1C2 (stereo not drawn) :: 0 (less than 50% disease control)

Each molecule below has a reported value. Please supply its disease control rating BCB.
1. CCCCc1ccc(CNC2COC3(CCC(C(C)(C)C)CC3)C2)cc1 (stereo not drawn)
2. CC(C)CC(C)NC1COC2(CCC(C(C)(C)C)CC2)C1 (stereo not drawn)

["0 (less than 50% disease control)", "1 (about 50-80% disease control)"]

Here are 8 molecules. What values of disease control rating BCB were reported for them?
1. CC(C)(C)C1CCC2(CC1)CC(CN)CO2 (stereo not drawn)
2. CC(C)(C)c1ccc(NC2COC3(CCC(C(C)(C)C)CC3)C2)cc1 (stereo not drawn)
3. C1CCN(C2COC3(CCCCC3)C2)CC1 (stereo not drawn)
4. CC(C)(C)C1CCC2(CC1)CC(N)CO2 (stereo not drawn)
5. CC(C)(C)NC1COC2(CCC(C(C)(C)C)CC2)C1 (stereo not drawn)
6. CCCCCN(CCCC)C1COC2(CCC(C(C)(C)C)CC2)C1 (stereo not drawn)
7. CN(C1COC2(CCC(C(C)(C)C)CC2)C1)C1CC2CCC1C2 (stereo not drawn)
8. CC(C)(C)C1CCC2(CC1)CC(Nc1ccccc1)CO2 (stereo not drawn)

1: 0 (less than 50% disease control); 2: 0 (less than 50% disease control); 3: 0 (less than 50% disease control); 4: 0 (less than 50% disease control); 5: 2 (greater than 80% disease control); 6: 0 (less than 50% disease control); 7: 0 (less than 50% disease control); 8: 0 (less than 50% disease control)

For each entry beneath this line, provide reported disease control rating BCB.
1. CC(C)CCCC(C)NC1COC2(CCC(C(C)(C)C)CC2)C1 (stereo not drawn)
2. C=CCN(CC=C)C1COC2(CCC(C(C)(C)C)CC2)C1 (stereo not drawn)
3. CC(C)(C)C1CCC2(CC1)CC(NCCC1=CCCCC1)CO2 (stereo not drawn)
4. CCCCCCCCCCCCCCNC1COC2(CCC(C(C)(C)C)CC2)C1 (stereo not drawn)
5. c1ccc(CNC2COC3(CCCCC3)C2)cc1 (stereo not drawn)
6. CC(C)(C)C1CCC(NC2COC3(CCC(C(C)(C)C)CC3)C2)CC1 (stereo not drawn)
7. CC(C)CN(CC(C)C)C1COC2(CCC(C(C)(C)C)CC2)C1 (stereo not drawn)

0 (less than 50% disease control)
2 (greater than 80% disease control)
2 (greater than 80% disease control)
0 (less than 50% disease control)
0 (less than 50% disease control)
2 (greater than 80% disease control)
0 (less than 50% disease control)
